tested on: opioid receptor subtypes; assay: Mouse vas deferens preparation (MVD), agonist/antagonist profile at opioid receptor subtypes; type: cell-based; conditions: in vitro MVD; in words

[
  {
    "compound": "COc1ccc2c3c1O[C@H]1C(=O)CC[C@@]4(NC(=O)C=Cc5ccc(Br)cc5)[C@@H](C2)N(CC2CC2)CC[C@]314 [Br dihydro]",
    "MVD activity profile": "antagonists"
  },
  {
    "compound": "COc1ccc2c3c1O[C@H]1C(=O)CC[C@@]4(NC(=O)C=Cc5ccc(C)cc5)[C@@H](C2)N(CC2CC2)CC[C@]314 [Me dihydro]",
    "MVD activity profile": "antagonists"
  }
]

Sourced from patent US4925848A
